Numbers sourced from ChEMBL document CHEMBL2380261.

- measurementDescription: Cytotoxicity against human Huh7.5 cells assessed as cell viability after 48 hrs by Alamar blue assay
measuredParameter: CC50 at 48 h (nM)

| structureString | cmp | recordedNumber |
| --- | --- | --- |
| CC(C)[C@H](NC(=O)CCC(=O)/C=C/c1ccccc1)C(=O)O | > | 100000 |
| COC(=O)[C@@H](NC(=O)CCC(=O)/C=C/c1cccnc1)C(C)C | = | 1570 |
| COC(=O)[C@H](C)NC(=O)CCC(=O)/C=C/c1ccc2c(c1)OCO2 | = | 1110 |
| CCOS(=O)(=O)/C=C/[C@@H](NC(C)=O)[C@@H](C)O | = | 27700 |
| CCOS(=O)(=O)/C=C/[C@H](Cc1ccccc1)NC(=O)CCC(=O)/C=C/c1ccccc1 | = | 1000 |
